# Test system: 156681-154-R-J1-PDC tumor spheroids, viability % test/control
# test description: Anticancer human tumor 156681-154-R-J1-PDC patient-derived melanoma cell line growth inhibition [TAK]
# condition summary: second compound 0.3 µM; first compound 0.316 µM; active compounds read low; spheroids with HUVEC and MSC
# Experimental: Combinatorial screen of targeted agents with TAK-243 and ipatasertib in multi-cell type tumor spheroids […] Compounds. […] If the clinical Cmax for an agent had not been determined, the highest concentration tested was 10 microM. NCI60 Cell Culture. […] The optimal seeding densities for each of the cell lines at each time point assessed were determined prior to performing the concentration response studies. […]
assay metric: viability, T/C (%)

CC(C)(C)c1nc(-c2cccc(NS(=O)(=O)c3c(F)cccc3F)c2F)c(-c2ccnc(N)n2)s1 + CC(C)NCC(C(=O)N1CCN(c2ncnc3c2C(C)CC3O)CC1)c1ccc(Cl)cc1; 36.9
Cc1nc(NC(=O)N2CCCC2C(N)=O)sc1-c1ccnc(C(C)(C)C(F)(F)F)c1 (centres undefined) + CC(C)NCC(C(=O)N1CCN(c2ncnc3c2C(C)CC3O)CC1)c1ccc(Cl)cc1; 91
COc1c(OCCCN2CCOCC2)ccc2c3n(c(=NC(=O)c4cnc(N)nc4)nc12)CCN3 + CC(C)NCC(C(=O)N1CCN(c2ncnc3c2C(C)CC3O)CC1)c1ccc(Cl)cc1; 11.3
CCCS(=O)(=O)Nc1ccc(F)c(C(=O)c2c[nH]c3ncc(-c4ccc(Cl)cc4)cc23)c1F + CC(C)NCC(C(=O)N1CCN(c2ncnc3c2C(C)CC3O)CC1)c1ccc(Cl)cc1; 104

----------
# System: 156681-154-R-J1-PDC tumor spheroids, viability % test/control
# test description: Anticancer human tumor 156681-154-R-J1-PDC cell line growth inhibition [TAK]; active = viability on the fitted dose curve at most 10% of control; inactive = the rest;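 further: spheroids exposed to compounds for 7 days before the endpoint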
# condition summary: second compound 30 µM; first compound 0.0316 µM; spheroids with HUVEC and MSC
Outcome codes: active, inactive

CC(C)n1nc(-c2ccc3oc(N)nc3c2)c2c(N)ncnc21 + CC(C)NCC(C(=O)N1CCN(c2ncnc3c2C(C)CC3O)CC1)c1ccc(Cl)cc1; active
Cc1nc(NC(=O)N2CCCC2C(N)=O)sc1-c1ccnc(C(C)(C)C(F)(F)F)c1 (stereo unspecified) + CC(C)NCC(C(=O)N1CCN(c2ncnc3c2C(C)CC3O)CC1)c1ccc(Cl)cc1; inactive
CC(C)(C)c1nc(-c2cccc(NS(=O)(=O)c3c(F)cccc3F)c2F)c(-c2ccnc(N)n2)s1 + CC(C)NCC(C(=O)N1CCN(c2ncnc3c2C(C)CC3O)CC1)c1ccc(Cl)cc1; inactive
CC(C)CC(NC(=O)CNC(=O)c1cc(Cl)ccc1Cl)B1OC(=O)CC(CC(=O)O)(C(=O)O)O1 (stereo unspecified) + CC(C)NCC(C(=O)N1CCN(c2ncnc3c2C(C)CC3O)CC1)c1ccc(Cl)cc1; active
COC1CC2CCC(C)C(O)(O2)C(=O)C(=O)N2CCCCC2C(=O)OC(C(C)CC2CCC(OCCO)C(OC)C2)CC(=O)C(C)C=C(C)C(O)C(OC)C(=O)C(C)CC(C)C=CC=CC=C1C (stereo unspecified) + CC(C)NCC(C(=O)N1CCN(c2ncnc3c2C(C)CC3O)CC1)c1ccc(Cl)cc1; active
COc1c(OCCCN2CCOCC2)ccc2c3n(c(=NC(=O)c4cnc(N)nc4)nc12)CCN3 + CC(C)NCC(C(=O)N1CCN(c2ncnc3c2C(C)CC3O)CC1)c1ccc(Cl)cc1; active
